Overview of reported TGI across a group of compounds:
# Tested on: MALME-3M melanoma
# Assay Notes: NCI tumour cell line growth inhibition, 48 h
Readout Type: TGI (µM)

{"columns": ["Compound", "Readout Type", "Prefix Operator", "Result Number"],
 "data": [
  ["N=C(N)SCCCN", "TGI", "=", 29.1],
  ["CCNc1ncnc2c1nnn2CC", "TGI", ">", 100],
  ["COc1cc(C2CC(=O)Nc3c2cc(Br)c2ccccc32)cc(Br)c1OC (stereo not given)", "TGI", "=", 67.2],
  ["COc1cc(OC)cc(-c2n/c(=C\\c3c(O)[nH]c4ccc(Cl)cc34)cc3c2=Nc2ccccc2-3)c1", "TGI", "=", 44.7],
  ["CC(=O)[CH-]C(=O)Nc1ccccc1.CC(=O)[CH-]C(=O)Nc1ccccc1.CC[O-].CC[O-].[Ti+4]", "TGI", ">", 100],
  ["COc1ccc2c(c1)CC1Cc3ccccc3CCN1C2 (stereo not given)", "TGI", ">", 100],
  ["O=C(O)[C@@H](NS(=O)(=O)c1ccc2ccccc2c1)c1ccccc1", "TGI", ">", 100],
  ["CCN(CC)CCCC(C)Nc1c(-c2ccccc2)cnc2cc(Cl)ccc12 (stereo not given)", "TGI", "=", 4.62],
  ["Cc1ccc(N=C2SC(c3ccc(C)cc3)(c3ccc(C)cc3)c3ccccc32)cc1", "TGI", ">", 100],
  ["Nc1ccc(C(=O)N/C(=C\\c2cccc([N+](=O)[O-])c2)c2nc3ccc(Cl)cc3[nH]2)cc1", "TGI", ">", 100]
]}

---

# System: SNB-75 CNS
# Assay Notes: NCI tumour cell line growth inhibition, 48 h
Where a SMILES comes first, the peptide text is derived from it. [ ]: non-standard residue; d: D form. The star is where a group is joined. ξ: configuration not given here. ξD = NC(CC(=O)O)C(=O)O; Ac3c = NC1(C(=O)O)CC1; Boc = CC(C)(C)OC(=O)*; OtBu = CC(C)(C)O*
The following compounds are shown together with reported TGI values.

{"columns": ["Compound", "Prefix Operator", "TGI (µM)"],
 "data": [
  ["O=S(=O)(NC1=NCCN1C(=S)SN1CCn2c1nsc2=S)c1cccc(OC(F)(F)F)c1", "=", 38.9],
  ["CCC[CH2][Sn]([CH2]CCC)([O]C(=O)/C=C/c1ccccc1F)[O]C(=O)/C=C/c1ccccc1F", "=", 2.06],
  ["Cc1nc2c(sc(=S)n2-c2ccccc2)c2nc3ccccc3n12", ">", 100],
  ["COC1=CC(=O)c2c(O)c3c(c(O)c2C1=O)C[C@](C)(O)C[C@@H]3O", "=", 28],
  ["Nc1ccc(-c2nc3ccc(F)cc3s2)cc1", "=", 95],
  ["Nc1n[nH]c(N)c1N=Nc1ccc(O)cc1", "=", 41.6],
  ["COCCOCOC(C)(C)[C@H](CCOC(C)=O)O[Si](c1ccccc1)(c1ccccc1)C(C)(C)C", ">", 100],
  ["CN(c1ccc(C#N)c(Cl)c1)C1CCC(NC(=O)c2ccc(N3CCN(C4CN(c5ccc6c(c5)C(=O)N(C5CCC(=O)NC5=O)C6=O)C4)CC3)cc2)CC1 (centres undefined)", ">", 100],
  ["COC(=O)C1(NC(=O)C(CC(=O)OC(C)(C)C)NC(=O)OC(C)(C)C)CC1 (centres undefined) (Boc-[ξD](OtBu)-[Ac3c]-OMe)", ">", 100]
]}
